molecular target: WT hHCN1 (Homo sapiens); construct: Full-length WT or mutant human HCN1 were cloned into the pcDNA3.1 vector; expressed in transfected cells; host or cells: HeLa cells, pcDNA3.1 vector, transient lipofection; experiment: Whole-cell patch-clamp, Ih inhibition in transfected HeLa cells; format: cell-based; settings: membrane potential -140 mV, read-out: half-maximal inhibitory concentration (IC50) of Ih inhibition
Sequence (O60741 whole entry): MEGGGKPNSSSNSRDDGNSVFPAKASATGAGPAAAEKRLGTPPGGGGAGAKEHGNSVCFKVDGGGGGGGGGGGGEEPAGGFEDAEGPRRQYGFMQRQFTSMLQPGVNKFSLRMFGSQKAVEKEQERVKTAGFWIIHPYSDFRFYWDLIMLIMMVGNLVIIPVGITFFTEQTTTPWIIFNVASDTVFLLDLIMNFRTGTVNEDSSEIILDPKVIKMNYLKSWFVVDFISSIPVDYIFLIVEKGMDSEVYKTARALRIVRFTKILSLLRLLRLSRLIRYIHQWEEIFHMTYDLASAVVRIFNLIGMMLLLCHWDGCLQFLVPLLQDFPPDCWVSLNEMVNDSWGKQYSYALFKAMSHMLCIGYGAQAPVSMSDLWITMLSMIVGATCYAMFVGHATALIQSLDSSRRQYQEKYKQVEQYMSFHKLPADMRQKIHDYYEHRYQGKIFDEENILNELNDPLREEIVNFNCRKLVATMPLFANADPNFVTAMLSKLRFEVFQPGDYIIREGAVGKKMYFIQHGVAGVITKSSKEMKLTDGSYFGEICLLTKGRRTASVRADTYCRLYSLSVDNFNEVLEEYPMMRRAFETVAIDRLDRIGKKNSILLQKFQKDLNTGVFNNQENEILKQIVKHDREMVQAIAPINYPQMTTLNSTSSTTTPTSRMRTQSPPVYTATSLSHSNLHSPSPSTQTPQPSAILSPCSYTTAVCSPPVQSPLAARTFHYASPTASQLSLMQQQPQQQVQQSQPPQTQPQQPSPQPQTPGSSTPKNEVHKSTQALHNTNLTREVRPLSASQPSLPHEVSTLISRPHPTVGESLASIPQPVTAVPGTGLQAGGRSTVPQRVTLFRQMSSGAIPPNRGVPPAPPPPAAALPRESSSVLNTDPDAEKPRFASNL
Please respond with reported pIC50 for every item in the list.
# pIC50 = -log10(concentration in molar units)

Prompt: # query: pIC50 of entry COc1cc2c(cc1OC)CC(=O)N(CCCN(C)C[C@H]1Cc3cc(OC)c(OC)cc31)CC2 [ivabradine]
Response: 5.53

Prompt: # query: pIC50 of entry O=C(CCCN1CCC(O)(c2ccc(Cl)cc2)CC1)c1ccc(F)cc1 [haloperidol]
Response: 4.48
